assay: Plasma pharmacokinetics of DT2216 in patients, phase 1 dose escalation; format: in vivo, human; details: human, plasma, iv, 0.04 mg/kg, Cycle 1 Day 22, 0.04 mg/kg IV BIW, plasma, mean (CV%), N = 1; read-out: Vdss
valueKind: Vd (L/kg)

>>> testvalue("Cc1ncsc1-c1ccc([C@H](C)NC(=O)[C@@H]2C[C@@H](O)CN2C(=O)[C@@H](NC(=O)CCCCCC(=O)N2CCN(CC[C@H](CSc3ccccc3)Nc3ccc(S(=O)(=O)NC(=O)c4ccc(N5CCN(CC6=C(c7ccc(Cl)cc7)CCC(C)(C)C6)CC5)cc4)cc3S(=O)(=O)C(F)(F)F)CC2)C(C)(C)C)cc1 [DT2216]")
0.081
